Data provenance: PubChem BioAssay AID248

Each entry below carries its reported T/C.
- System: L1210 leukemia ip in BDF1 mice, survival T/C
- Test Protocol: NCI In Vivo Anticancer Drug Screen. Data for tumor model L1210 Leukemia (intraperitoneal) in B6D2F1 (BDF1) mice
- Measurement Context: endpoint: mean survival time; dose: 400.0 mg/kg/injection; schedule: Q04DX002 (ip); vehicle: Klucel (hydroxypropylcellulose) (HPC); higher = longer survival
Toxic doses and inconclusive results are not listed.

As a guide, the following entries are already answered.
| Compound | T/C |
| --- | --- |
| C/C(=N\OC(=O)c1ccc([N+](=O)[O-])cc1)C(C)(C)C | 96 % of control |
| CC(=O)Nc1ccc(F)c(Cl)c1F | 102 % of control |
| CCCCCCCCCCCC(=O)NC(=S)Nc1cccc(O)c1 | 104 % of control |

Look up T/C for this compound: CCS(=O)(=O)C1C2CCC(O2)C1S(=O)(=O)CC (centres undefined)
90 % of control

Look up T/C for this compound: O=C(OCc1ccccc1CN1CCCCC1)c1cccc(Cl)c1
91 % of control

Look up T/C for this compound: CCCCCCCc1nc(N)nc(N2CCOCC2)n1
110 % of control

###

- System: L1210 leukemia ip in BDF1 mice, survival T/C
- Test Protocol: NCI In Vivo Anticancer Drug Screen. Data for tumor model L1210 Leukemia (intraperitoneal) in B6D2F1 (BDF1) mice
- Measurement Context: endpoint: mean survival time; dose: 100.0 mg/kg/injection; schedule: Q04DX003 (ip); vehicle: acetone; higher = longer survival
Toxic doses and inconclusive results are not listed.
Property: T/C

As a guide, the following entries are already answered.
| Compound | Result |
| --- | --- |
| CCOC(=O)C1(C(=O)OCC)COC(=O)C1 | 107 % of control |
| O=C(O)C1(C(=O)O)CC2CC=CCC2C1 (stereo not given) | 100 % of control |
| Cc1cc2c(cc1C)N(C(=O)CN1CCOCC1)CC(=O)N2 | 98 % of control |
| O=C(NS(=O)(=O)c1ccc(Cl)cc1)c1ccccc1 | 104 % of control |

Look up T/C for this compound: COCCCNP(=O)(OC(C)C)OC(C)C
97 % of control

###

- System: L1210 leukemia ip in BDF1 mice, survival T/C
- Test Protocol: NCI In Vivo Anticancer Drug Screen. Data for tumor model L1210 Leukemia (intraperitoneal) in B6D2F1 (BDF1) mice
- Measurement Context: endpoint: mean survival time; dose: 300.0 mg/kg/injection; schedule: Q01DX009 (ip); vehicle: Klucel (hydroxypropylcellulose) (HPC); higher = longer survival
Toxic doses and inconclusive results are not listed.
Each entry below carries its reported T/C.

As a guide, the following entries are already answered.
| Compound | Subject Of Test | Result |
| --- | --- | --- |
| COc1ccc2c(c1)CC[C@@H]1[C@@H]2CC[C@@]2(C)[C@H]1CC[C@@]2(O)C(F)=C(F)F | L1210 leukemia ip in BDF1 mice, survival T/C | 104 % of control |
| COc1cc(C)c2c([N+](=O)[O-])cc([N+](=O)[O-])c(OC)c2n1 | L1210 leukemia ip in BDF1 mice, survival T/C | 95 % of control |
| CCOC(=O)/C(C)=C\c1c(Br)cc(Br)c(N)c1Br | L1210 leukemia ip in BDF1 mice, survival T/C | 95 % of control |
| COc1ccc(C(=O)C(C)C(O)(C(F)(F)F)C(F)(F)F)cc1 (stereo not given) | L1210 leukemia ip in BDF1 mice, survival T/C | 92 % of control |

Look up T/C for this compound: N#CCCS(=O)(=O)CCc1ccccc1
105 % of control
